Origin of values: PubChem BioAssay AID1919007

What viability, T/C was measured for each of the following?
System: A498 complex spheroids with HUVEC/MSC, growth
procedure.details: Anticancer human tumor A498 cell line growth inhibition [AhR]
conditions.used: second compound 0.316 µM; first compound 3.16 µM; stronger effect = lower value
Answers are plain numbers, in %.

Consider the reported viability, T/C for these compounds:
{"compound": "COc1cccc2c1C(=O)c1c(O)c3c(c(O)c1C2=O)CC(O)(C(=O)CO)CC3OC1CC(N)C(O)C(C)O1 (stereo not given) + Cc1cncc(-c2nc(NCCc3c[nH]c4ccccc34)c3ncn(C(C)C)c3n2)c1", "unit.descriptor": "%", "viability, T/C": 1.1}
{"compound": "CC1COCCN1c1cc(C2(S(C)(=N)=O)CC2)nc(-c2ccnc3[nH]ccc23)n1 (stereo not given) + CC(CO)NC(=O)c1cc(-c2ccc(Cl)cc2)nn(-c2cnn(C)c2)c1=O", "unit.descriptor": "%", "viability, T/C": 30.2}
{"compound": "NS(=O)(=O)OCC1CC(n2ccc3c(NC4CCc5ccccc54)ncnc32)CC1O (stereo not given) + Cc1cncc(-c2nc(NCCc3c[nH]c4ccccc34)c3ncn(C(C)C)c3n2)c1", "unit.descriptor": "%", "viability, T/C": 22.4}
{"compound": "COc1ccc([C@@H](O)c2cc(-c3ncnc4cc(N5CCOCC5)ccc34)c(F)cc2Cl)nn1 + Cc1cncc(-c2nc(NCCc3c[nH]c4ccccc34)c3ncn(C(C)C)c3n2)c1", "unit.descriptor": "%", "viability, T/C": 17.7}

Proceeding to the next compound to report its viability, T/C.
Q. Note viability, T/C for the compound shown: CC1COCCN1c1cc(C2(S(C)(=N)=O)CC2)nc(-c2ccnc3[nH]ccc23)n1 (stereo not given) + Cc1ccccc1N=Nc1ccc(NC(=O)c2ccnn2C)c(C)c1
A. 38.9

----------
Tested on: A498 complex spheroids with HUVEC/MSC, growth
procedure.details: Anticancer human tumor A498 cell line growth inhibition [AhR]
conditions.used: second compound 3.16 µM; first compound 1 µM; stronger effect = lower value
From the text: Multicellular complex tumor spheroid response to aryl hydrocarbon receptor antagonists in combination with a variety of drugs and investigational agents in selected tumor cell lines […] Compounds. […] If the clinical Cmax for an agent had not been determined, the highest concentration tested was 10 microM (Table 1). […]
parameter: viability, T/C (%)
Give bare numbers, in %.

{"molecule": "CC1COCCN1c1cc(-c2ccnn2C)c2ccnc(-c3ccn[nH]3)c2n1 (stereo not drawn) + Cc1ccccc1N=Nc1ccc(NC(=O)c2ccnn2C)c(C)c1", "viability, T/C, %": 11.1}
{"molecule": "CC1COCCN1c1cc(C2(S(C)(=N)=O)CC2)nc(-c2ccnc3[nH]ccc23)n1 (stereo not drawn) + CC(CO)NC(=O)c1cc(-c2ccc(Cl)cc2)nn(-c2cnn(C)c2)c1=O", "viability, T/C, %": 52.1}

Proceeding to the next molecule to report its viability, T/C.
Q. Note viability, T/C for the molecule shown: CC(C)c1c(-c2ccccc2)nc2c(C#N)c[nH]n2c1=O + CC(CO)NC(=O)c1cc(-c2ccc(Cl)cc2)nn(-c2cnn(C)c2)c1=O
A. 75.3

----------
What viability, T/C was measured for each of the following?
Test system: A498 complex spheroids with HUVEC/MSC, growth
procedure.details: Anticancer human tumor A498 cell line growth inhibition [AhR];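 note: luminescence signal used as a surrogate for viable cells; seven day exposure starting three days after spheroid seeding; luminescence viability scaled so 100% equals DMSO vehicle wells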
conditions.used: second compound 1 µM; first compound 0.3 µM; stronger effect = lower value
Description: Multicellular complex tumor spheroid response to aryl hydrocarbon receptor antagonists in combination with a variety of drugs and investigational agents in selected tumor cell lines […] Compounds. […] If the clinical Cmax for an agent had not been determined, the highest concentration tested was 10 microM (Table 1). […]
One number for each entry, in %.

Consider the reported viability, T/C for these compounds:
{"compound": "O=C(C=Cn1cnc(-c2cc(C(F)(F)F)cc(C(F)(F)F)c2)n1)NNc1cnccn1 + Cc1ccccc1N=Nc1ccc(NC(=O)c2ccnn2C)c(C)c1", "unit.descriptor": "%", "viability, T/C": 17.9}
{"compound": "CCc1c2c(nc3ccc(O)cc13)-c1cc3c(c(=O)n1C2)COC(=O)[C@]3(O)CC + Cc1ccccc1N=Nc1ccc(NC(=O)c2ccnn2C)c(C)c1", "unit.descriptor": "%", "viability, T/C": 43.6}

Proceeding to the next compound to report its viability, T/C.
Q. Note viability, T/C for the compound shown: CCc1c2c(nc3ccc(O)cc13)-c1cc3c(c(=O)n1C2)COC(=O)[C@]3(O)CC + Cc1cncc(-c2nc(NCCc3c[nH]c4ccccc34)c3ncn(C(C)C)c3n2)c1
A. 29.1

----------
Tested on: A498 complex spheroids with HUVEC/MSC, growth
procedure.details: Anticancer human tumor A498 cell line growth inhibition [AhR];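 note: luminescence signal used as a surrogate for viable cells; seven day exposure starting three days after spheroid seeding; luminescence viability scaled so 100% equals DMSO vehicle wells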
conditions.used: second compound 0.316 µM; first compound 0.000949 µM; stronger effect = lower value
Source text: Multicellular complex tumor spheroid response to aryl hydrocarbon receptor antagonists in combination with a variety of drugs and investigational agents in selected tumor cell lines […] Compounds. […] If the clinical Cmax for an agent had not been determined, the highest concentration tested was 10 microM (Table 1). […]
Please assign not satisfied whenever viability, T/C is at or above 90%, and satisfied whenever it is below.

Observe how each entry below is paired with its result.
{"molecule": "CC(C)CC(NC(=O)C(Cc1ccccc1)NC(=O)c1cnccn1)B(O)O (stereo unspecified) + Cc1ccccc1N=Nc1ccc(NC(=O)c2ccnn2C)c(C)c1", "label.value": "not satisfied"}
{"molecule": "CC(C)CC(NC(=O)C(Cc1ccccc1)NC(=O)c1cnccn1)B(O)O (stereo unspecified) + Cc1cncc(-c2nc(NCCc3c[nH]c4ccccc34)c3ncn(C(C)C)c3n2)c1", "label.value": "not satisfied"}
{"molecule": "Nc1ncn(C2CC(O)C(CO)S2)c(=O)n1 (stereo unspecified) + CC(CO)NC(=O)c1cc(-c2ccc(Cl)cc2)nn(-c2cnn(C)c2)c1=O", "label.value": "not satisfied"}
{"molecule": "Nc1ncn(C2CC(O)C(CO)S2)c(=O)n1 (stereo unspecified) + Cc1cncc(-c2nc(NCCc3c[nH]c4ccccc34)c3ncn(C(C)C)c3n2)c1", "label.value": "not satisfied"}
{"molecule": "CCc1c2c(nc3ccc(O)cc13)-c1cc3c(c(=O)n1C2)COC(=O)[C@]3(O)CC + Cc1cncc(-c2nc(NCCc3c[nH]c4ccccc34)c3ncn(C(C)C)c3n2)c1", "label.value": "satisfied"}

Attention now shifts to the item below.
Q. # strict comparison: is reported viability, T/C < 90%? input = CCc1c2c(nc3ccc(O)cc13)-c1cc3c(c(=O)n1C2)COC(=O)[C@]3(O)CC + CC(CO)NC(=O)c1cc(-c2ccc(Cl)cc2)nn(-c2cnn(C)c2)c1=O
A. satisfied

----------
System: A498 complex spheroids with HUVEC/MSC, growth
procedure.details: Anticancer human tumor A498 cell line growth inhibition [AhR];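 note: luminescence signal used as a surrogate for viable cells; seven day exposure starting three days after spheroid seeding; luminescence viability scaled so 100% equals DMSO vehicle wells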
conditions.used: second compound 0.316 µM; first compound 0.000949 µM; stronger effect = lower value
parameter: viability, T/C (%)
Answers are plain numbers, in %.

Consider the reported viability, T/C for these compounds:
{"compound": "CC(C)CC(NC(=O)C(Cc1ccccc1)NC(=O)c1cnccn1)B(O)O (stereo not drawn) + CC(CO)NC(=O)c1cc(-c2ccc(Cl)cc2)nn(-c2cnn(C)c2)c1=O", "viability, T/C (%)": 90}
{"compound": "CCc1c2c(nc3ccc(O)cc13)-c1cc3c(c(=O)n1C2)COC(=O)[C@]3(O)CC + Cc1ccccc1N=Nc1ccc(NC(=O)c2ccnn2C)c(C)c1", "viability, T/C (%)": 84.9}

Q. Note viability, T/C for the compound shown: Nc1ncn(C2CC(O)C(CO)S2)c(=O)n1 (stereo not drawn) + Cc1ccccc1N=Nc1ccc(NC(=O)c2ccnn2C)c(C)c1
A. 98.2

----------
Tested on: A498 complex spheroids with HUVEC/MSC, growth
procedure.details: Anticancer human tumor A498 cell line growth inhibition [AhR];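 note: luminescence signal used as a surrogate for viable cells; seven day exposure starting three days after spheroid seeding; luminescence viability scaled so 100% equals DMSO vehicle wells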
conditions.used: second compound 0.316 µM; first compound 0.0316 µM; stronger effect = lower value
Excerpt: Multicellular complex tumor spheroid response to aryl hydrocarbon receptor antagonists in combination with a variety of drugs and investigational agents in selected tumor cell lines […] Compounds. […] If the clinical Cmax for an agent had not been determined, the highest concentration tested was 10 microM (Table 1). […]
parameter: viability, T/C (%)
Answers are plain numbers, in %.

Consider the reported viability, T/C for these molecules:
{"molecule": "Nc1ncn(C2CC(O)C(CO)O2)c(=O)n1 (stereo not drawn) + Cc1ccccc1N=Nc1ccc(NC(=O)c2ccnn2C)c(C)c1", "unit.descriptor": "%", "viability, T/C": 97.4}
{"molecule": "O=C(C=Cc1cccc(S(=O)(=O)Nc2ccccc2)c1)NO + Cc1ccccc1N=Nc1ccc(NC(=O)c2ccnn2C)c(C)c1", "unit.descriptor": "%", "viability, T/C": 95.6}
{"molecule": "CC1COCCN1c1cc(-c2ccnn2C)c2ccnc(-c3ccn[nH]3)c2n1 (stereo not drawn) + Cc1ccccc1N=Nc1ccc(NC(=O)c2ccnn2C)c(C)c1", "unit.descriptor": "%", "viability, T/C": 58.8}

// for each molecule below, give its viability, T/C
1. Nc1ccccc1NC(=O)c1ccc(CNC(=O)OCc2cccnc2)cc1 + Cc1ccccc1N=Nc1ccc(NC(=O)c2ccnn2C)c(C)c1
2. COc1cc(C2c3cc4c(cc3C(OC3OC5COC(C)OC5C(O)C3O)C3COC(=O)C23)OCO4)cc(OC)c1O (stereo not drawn) + Cc1cncc(-c2nc(NCCc3c[nH]c4ccccc34)c3ncn(C(C)C)c3n2)c1
3. NS(=O)(=O)OCC1CC(n2ccc3c(NC4CCc5ccccc54)ncnc32)CC1O (stereo not drawn) + Cc1ccccc1N=Nc1ccc(NC(=O)c2ccnn2C)c(C)c1

A.
1: 123; 2: 83.7; 3: 88.5
